Molecular target: NACHT, LRR and PYD domains-containing protein 3 (Mus musculus)
Sequence (Q8R4B8 whole entry, the tested form may be a part): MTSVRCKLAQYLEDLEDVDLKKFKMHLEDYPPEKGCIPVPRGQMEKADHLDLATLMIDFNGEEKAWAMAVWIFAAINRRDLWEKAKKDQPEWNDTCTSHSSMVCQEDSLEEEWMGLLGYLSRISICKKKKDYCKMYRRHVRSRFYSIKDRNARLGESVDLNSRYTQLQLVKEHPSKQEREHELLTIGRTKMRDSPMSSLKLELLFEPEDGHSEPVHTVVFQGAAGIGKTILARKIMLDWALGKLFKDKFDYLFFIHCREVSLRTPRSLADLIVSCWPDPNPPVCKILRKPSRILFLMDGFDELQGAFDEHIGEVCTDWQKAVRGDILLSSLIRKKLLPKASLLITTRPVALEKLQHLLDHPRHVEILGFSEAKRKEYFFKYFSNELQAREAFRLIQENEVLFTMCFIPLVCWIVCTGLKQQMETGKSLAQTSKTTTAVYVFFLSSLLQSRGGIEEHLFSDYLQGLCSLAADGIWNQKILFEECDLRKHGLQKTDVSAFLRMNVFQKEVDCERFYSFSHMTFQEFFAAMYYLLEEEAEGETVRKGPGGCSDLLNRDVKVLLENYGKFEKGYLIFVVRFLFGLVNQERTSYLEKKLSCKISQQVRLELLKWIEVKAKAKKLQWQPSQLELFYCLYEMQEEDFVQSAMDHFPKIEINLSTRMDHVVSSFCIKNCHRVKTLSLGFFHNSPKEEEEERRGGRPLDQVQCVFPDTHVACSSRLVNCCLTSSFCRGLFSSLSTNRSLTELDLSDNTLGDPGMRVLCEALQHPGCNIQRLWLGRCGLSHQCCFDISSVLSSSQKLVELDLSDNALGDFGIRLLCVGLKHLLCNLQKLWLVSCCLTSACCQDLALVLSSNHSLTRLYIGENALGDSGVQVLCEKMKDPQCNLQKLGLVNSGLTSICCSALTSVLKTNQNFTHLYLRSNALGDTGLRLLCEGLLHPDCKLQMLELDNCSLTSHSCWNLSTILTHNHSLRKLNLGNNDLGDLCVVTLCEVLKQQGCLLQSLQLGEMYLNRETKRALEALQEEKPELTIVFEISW
Experiment: Inhibition of NLRP3 inflammasome activation in LPS/nigericin-treated mouse J774A.1 cells assessed as decrease in IL-1beta level pretreated for 0.5 hrs followed by stimulation with nigericin for 1 hr by ELISA
As shown below, each of these molecules has a reported IC50 value.
Lab book: enter the figure in nM, no units written.

• C=C1[C@@H](OC(C)=O)CC[C@]23C=C(C=O)[C@@H](OC(C)=O)C[C@@]2(C)[C@H](C)CC[C@@]13C = 5500

Next molecule, IC50 to be filled in.
Entry CC(C)(O)c1coc(S(=O)(=O)NC(=O)Nc2c3c(cc4c2CCC4)CCC3)c1 — recorded IC50 = 23.1

Values were extracted from ChEMBL document CHEMBL5126656.
